The entries below are paired with their reported log10 TGI.
# Tested on: NCI-H460 lung
# Experimental Protocol: NCI tumour cell line growth inhibition, 48 h
Measure: log10 TGI (log10 of the value in µM)

# Compound, log10 TGI
records = [
    ("COc1cccc2c1C(=O)c1c(O)c3c(c(O)c1C2=O)C[C@@](O)(C(=O)CO)CC3OC1CC(NCCCCC(OC(C)=O)OC(C)=O)C(O)C(C)O1 (stereo partly drawn)", -0.50),
    ("Nc1ccc(Sc2ccc3c4c2cccc4c(=O)n2c4ccccc4nc32)cc1", 1.16),
    ("CCOC(=O)c1sc2[n+](c1C)C(=O)/C(=C/c1ccccc1Cl)S2", 0.81),
    ("CCC(C)Cn1c(C)nc2c1C(=O)c1ccccc1C2=O (stereo not drawn)", 1.54),
    ("c1ccc(-c2nn(-c3ccccc3)[n+](-c3ccccc3-c3ccccc3)n2)cc1", 0.93),
    ("CCN(CC)Cc1cc(Nc2c3ccc(Cl)cc3nc3c(C)cccc23)ccc1O", 0.43),
    ("Cc1c(-c2ccnc(N)n2)c2c(n1-c1ccccc1)C(=O)c1ccccc1C2=O", 1.78),
]

----------
The entries below are paired with their reported TGI.
# System: NCI/ADR-RES ovarian
# Experimental Protocol: NCI tumour cell line growth inhibition, 48 h
Measure: TGI

# Molecule, Target Desc, Recorded Result
measured = [
    ("CCCCCC(=O)OCC1(CO)C/C(=C/CC(C(C)C)C(C)C)C(=O)O1 (stereo not given)", "NCI/ADR-RES ovarian", "> 75 µM"),
    ("S=C1NC2=C(CCOc3c2ccc2ccccc32)C(c2ccc(Cl)cc2)N1 (stereo not given)", "NCI/ADR-RES ovarian", "> 100 µM"),
    ("O=C(CSCC(=O)N/N=C\\c1cccc(Br)c1)N/N=C\\c1cccc(Br)c1", "NCI/ADR-RES ovarian", "34.1 µM"),
    ("O=C(CN1CCN(c2cc3c(cc2F)c(=O)c(C(=O)O)cn3C2CC2)CC1)Nc1ccc(C(=O)/C=C/c2ccccc2)cc1", "NCI/ADR-RES ovarian", "> 100 µM"),
    ("COc1nc2ncc([C@@H](O)[C@H](O)CO)nc2c(=O)[nH]1", "NCI/ADR-RES ovarian", "> 100 µM"),
    ("CCOC(=O)CCC(NC(=O)c1ccc(Nc2nc3cc(N)cc(N)c3nc2-c2ccccc2)cc1)C(=O)OCC (stereo not given)", "NCI/ADR-RES ovarian", "> 79.1 µM"),
    ("O=C(OCC(OC(=O)c1ccccc1)C1CC(C(O)C2CCCCC2)C(=O)O1)c1ccccc1 (stereo not given)", "NCI/ADR-RES ovarian", "> 100 µM"),
    ("NC(=O)c1ccc(S(=O)(=NS(=O)(=O)c2ccccc2)c2ccc(C(N)=O)cc2)cc1", "NCI/ADR-RES ovarian", "> 100 µM"),
    ("CCOC(=O)C1=C(C)N(c2ccc(Cl)cc2)C2(O)C=CC(=O)C3C(=O)N(c4ccccc4)C(=O)C132 (stereo not given)", "NCI/ADR-RES ovarian", "6.72 µM"),
    ("Nc1nc(Cl)cc(NCC2CC(O)(CO)C2)n1 (stereo not given)", "NCI/ADR-RES ovarian", "> 100 µM"),
    ("CCN(CC)Cc1cc(Nc2c3ccc(Cl)cc3nc3c(C)cccc23)ccc1O", "NCI/ADR-RES ovarian", "3.02 µM"),
    ("O=[N+]([O-])C1(CO)COC2(OC1)c1ccccc1-c1ccccc12", "NCI/ADR-RES ovarian", "> 72.9 µM"),
    ("Cc1cccc2c1C(=O)/C(=C/c1ccccc1C(=O)O)C2", "NCI/ADR-RES ovarian", "> 100 µM"),
    ("CC1[C@@H]2C[C@@H]3O[C@@]34[C@H]3CCC5Cc6nc7c(nc6C[C@@]5(C)C3(O)CC(=O)[C@@]24CO[C@]12OC(C)(C)CC2O)CC1CC[C@@H]2C3=C[C@H]4O[C@@]5(O[C@@](C)(CO)C[C@@H]5O)C(C)[C@@]4(O)[C@]3(C)[C@@H](O)CC2[C@]1(C)C7 (stereo not given in full)", "NCI/ADR-RES ovarian", "> 3.52 µM"),
    ("Cn1cc(C2=C(c3cccc(Cl)c3)C(=O)NC2=O)c2ccccc21", "NCI/ADR-RES ovarian", "> 25 µM"),
    ("Cc1nc(C)c(C(=O)NNC(=O)c2ccccc2)cc1C(=O)NNC(=O)c1ccccc1", "NCI/ADR-RES ovarian", "> 100 µM"),
    ("O=C1CSC(c2cc3cc(Br)ccc3nc2Cl)N1c1ccc(F)c(Cl)c1 (stereo not given)", "NCI/ADR-RES ovarian", "> 50 µM"),
    ("NC(=S)c1cn(C2OC(CO)C(O)C2O)c2ncnc(N)c12 (stereo not given)", "NCI/ADR-RES ovarian", "8.24 µM"),
    ("Fc1ccc(-c2ncn(C3CCNCC3)c2-c2ccnc(Oc3ccc(Oc4ccccc4)cc3)n2)cc1", "NCI/ADR-RES ovarian", "7.04 µM"),
    ("CCOC(=O)/C=C/C(Br)=C(Br)/C=C/C(=O)OCC", "NCI/ADR-RES ovarian", "64.8 µM"),
    ("C[S+](C)C1(c2ccccc2)C(=O)c2ccccc2C1=O", "NCI/ADR-RES ovarian", "> 100 µM"),
    ("Cc1nc2cccc(F)c2c(=O)n1-c1nnc(C2CC2)s1", "NCI/ADR-RES ovarian", "> 10 µM"),
    ("CC(NC1=NCCO1)c1ccco1 (stereo not given)", "NCI/ADR-RES ovarian", "> 100 µM"),
    ("CCOC(=O)CCC1(C(=O)O[C@@H]2C[C@H](C)CC[C@H]2C(C)C)CCCCC1=O (stereo not given in full)", "NCI/ADR-RES ovarian", "> 100 µM"),
    ("Cn1ccnc1C(=O)/C=C/c1ccc(CC(=O)Nc2cc(F)c(F)c(F)c2)cc1", "NCI/ADR-RES ovarian", "> 25 µM"),
    ("O=C(Nc1ccc(I)cc1F)c1cc(F)ccc1O", "NCI/ADR-RES ovarian", "> 27.7 µM"),
    ("N#Cc1nc(-c2ccccn2)c(-c2ccccn2)nc1C#N", "NCI/ADR-RES ovarian", "8.5 µM"),
    ("C=C1CC2C[C@H](OS(=O)(=O)c3ccc(C)cc3)C(C1)N2C (stereo not given in full)", "NCI/ADR-RES ovarian", "> 100 µM"),
    ("CO[C@H]1/C=C/C=C/C=C/C[C@H](OC(=O)[C@@H](C)NC(=O)C2CCCCC2)[C@H](C)[C@@H](O)/C(C)=C\\CCC2=CC(=O)C=C(NC(=O)C1)C2=O", "NCI/ADR-RES ovarian", "> 50 µM"),
    ("N#Cc1c(NC(=S)Nc2ccccc2)sc2c1CCCC2", "NCI/ADR-RES ovarian", "> 100 µM"),
    ("COc1ccc(C2C3=C(COC3=O)N(CCO)c3cc4c(cc32)CCC4)cc1OC (stereo not given)", "NCI/ADR-RES ovarian", "> 36.4 µM"),
    ("CCN(Cc1cccc(C)c1)c1ccc(CO)c(Cl)c1", "NCI/ADR-RES ovarian", "24.5 µM"),
    ("CC1CCCc2c(CC3CC(=O)NC(=O)C3)nc(N)nc21 (stereo not given)", "NCI/ADR-RES ovarian", "> 100 µM"),
    ("Cc1nc2ccccc2nc1N1CCCC1", "NCI/ADR-RES ovarian", "> 100 µM"),
    ("CC(=O)OCC12C(OC(C)=O)C[C@@H](C)C3(CC(c4ccoc4)OC3=O)C1CCC(OC(C)=O)C21CO1 (stereo not given in full)", "NCI/ADR-RES ovarian", "> 100 µM"),
]
